# credit: ChEMBL document CHEMBL5303304

Test system: Fibroblast
Assay: Incucyte cell viability with human fibroblast; also: unitless GR value; below 1 slowed growth and below 0 cell loss
Assay type: toxicity, cell-based
Conditions: 0 h, 10 µM, compound concentration 10 uM, replicate number 1
Decide using Growth Rate: a value greater than or equal to -0.2 is label 1, a smaller one is label 0.

compound	category label
O=c1c(Br)ccc2n1C[C@@H]1CNC[C@H]2C1	label 1
CNC(=O)c1ccc(C)c(-n2c(C)cc(OCc3ccc(F)cc3F)c(Br)c2=O)c1	label 0
COc1cc(-c2cc3ncccc3c(OC[C@H]3CNC(=O)C3)n2)cc(OC)c1OC1CCOCC1.O=C(O)C(F)(F)F	label 1
CC(C)Nc1ncnc2cc(OCc3cccc([S@@](C)(=N)=O)c3)c(Br)cc12	label 0
O=C(Nc1c(-c2cccs2)nc2ccc(Cl)cn12)c1ccc(Cl)cc1	label 1
CCN1C(=CC(C)=O)Sc2ccc(OC)cc21	label 1
CNc1nc(Nc2ccc(C(=O)N3CCOCC3)cc2OC)nc2[nH]cc(Cl)c12	label 0
CS(=O)(=O)c1ccc(-c2cnc(N)c(C(=O)Nc3ccccc3)n2)cc1	label 0
CC(C)[C@H](CO)Nc1nc(Nc2ccc(C(=O)O)c(Cl)c2)c2ncn(C(C)C)c2n1	label 0
CCn1ccc(Nc2ncc3c(n2)-c2c(nn(C)c2-c2ccc(-c4cnn(C)c4)cc2Cl)CC3)n1	label 0
COCc1c(-c2cc3cc(C)cc(OC)c3s2)c2c(N)ncnn2c1CN[C@@H]1CCNC1=O	label 0
COc1cc2nc(C)nc(N[C@H](C)c3cc(N)cc(C(F)(F)F)c3)c2cc1O[C@H]1CCOC1	label 0
CC(=O)N1CCN([C@H]2CCC[C@@H](NC(=O)c3cc4c(F)ccc(C)c4[nH]3)C2)CC1.O=C(O)C(F)(F)F	label 1
Cn1cnc(Cn2ccc3ccc(CNCc4[nH]c5ccccc5c4[C@H]4NC(=O)c5ccc(O)cc54)cc32)c1	label 0
C[C@H]1CN(C2COC2)CCN1c1ccc(Nc2cc(-c3ccnc(N4CCn5c(cc6c5CC(C)(C)C6)C4=O)c3CO)cn(C)c2=O)nc1	label 0
CNc1ncc2cc(-c3ccc(-c4cccc(C)n4)cc3Cl)c(=O)n(C[C@H]3OC[C@H](N)CO3)c2n1	label 1
Cc1c(-c2c(F)cc(C(N)=O)c3[nH]c4c(c23)CC[C@H](C(C)(C)O)C4)cccc1-n1c(=O)c2cccc(F)c2n(C)c1=O	label 0
C[C@@H]1OCC2(CCN(c3cnc(Sc4ccnc(N)c4Cl)c(N)n3)CC2)[C@@H]1N	label 0
O=C(Nc1ccccc1Br)N[C@@H]1CCN(c2ccc(C(F)(F)F)cn2)C1	label 1
O=C(O)Cc1cc(I)c(Oc2ccc(O)c(I)c2)c(I)c1	label 1
CCn1c(-c2nonc2N)nc2ccccc21 [GW549034X]	label 0
CO[C@H]1CC[C@H](N(c2cc(F)c(Oc3ncc(Cn4nccn4)cc3C(F)(F)F)cc2C(=O)O)C(=O)[C@H]2CC[C@H](C)CC2)CC1	label 0
CC(C)CC(=O)Nc1cncc(-c2ccc3[nH]nc(-c4nc5c(-c6cccc(F)c6)cncc5[nH]4)c3c2)c1	label 1

----------
Test system: HEK-293T
Test: Incucyte cell viability with HEK293T; also: unitless GR value; below 1 slowed growth and below 0 cell loss
Format: toxicity, cell-based
Conditions: human, 24 h, 10 µM, compound concentration 10 uM, replicate number 2
// reported Growth Rate per item
parameter measured: Growth Rate

substance smiles	assay result
COc1cc(-c2cc3ncccc3c(O[C@H](C)[C@H]3CNC(=O)C3)n2)cc(OC)c1OC.Cl	0.86
CCN1CCN(Cc2ccc(NC(=O)c3ccc(C)c(Oc4ccnc5[nH]ccc45)c3)cc2C(F)(F)F)CC1.Cl.Cl.Cl.O	-0.43
C[C@@H]1C[C@H](N)C[C@H](c2ccncc2NC(=O)c2ccc(F)c(-c3c(F)cccc3F)n2)C1	0.57
Clc1cccc(Nc2nccc(NCCCN3CCOCC3)n2)c1	0.69
Cc1cc(-c2nncc3c(C(C)(C)C)c(OCc4ncnn4C)nn23)no1	0.61
OC(c1ccc(-c2ccc(CN3CCN(Cc4ccncc4)CC3)cc2)c(F)c1)(C(F)(F)F)C(F)(F)F	0.29
COC1(C#Cc2ccc(Cl)c(-c3ncc4c(n3)-c3sc(NC(C)=O)nc3CC4)c2)CCN(C)CC1	0.05
Cc1c(NC(=O)COc2ccc(Cl)cc2C(=O)c2cc(F)cc(C(F)(F)F)c2)ccc(C(=O)O)c1F	0.78
COC(=O)c1ccc2c(c1)NC(=O)/C2=C(\Nc1ccc(-c2nccn2C)cc1)c1ccccc1	-0.27
CC(C)(C)S(=O)(=O)c1ccc2nccc(Nc3n[nH]c4ccc(F)cc34)c2c1	-0.15
